Entry source: patent US20230373934A1

assay_comment: Microsomal stability assay, liver microsome half-life (mouse)
Assay type: in vitro ADME
condition: pH 7.4; mouse liver microsomes 0.5 mg/mL + NADPH, 1 μM compound, 37° C; read-out: Liver microsome + NADPH T½ (min) Mouse
Provide the recorded half-life at 1 μM for the entries that follow.

Field: example entries. Status: answers known.
# test_smiles, half-life at 1 μM
rows = [
    ("CC(C)(c1ccc(-c2ccc(N3CC(NS(C)(=O)=O)C3)nc2)cc1)c1cc(Cl)c(OCCCl)c(C#N)c1", "> 120 min"),
    ("CS(=O)(=O)Nc1cnc2cc(-c3ccc(N(CC(F)(F)F)c4cnc(OC5CC5)c(C#N)c4)cc3)ccc2n1", "> 120 min"),
    ("COc1c(Cl)cc(Oc2ccc(-c3ccc4nc(NS(C)(=O)=O)cnc4c3)cc2)cc1C#N", "> 120 min"),
]

For CS(=O)(=O)Nc1cnc2cc(-c3ccc(Oc4cc(Cl)c(OCC(F)(F)F)c(C#N)c4)cc3)ccc2n1 the compound record lists half-life at 1 μM as > 120 min

----------
tested_on: androgen receptor (AR) (Homo sapiens, UniProt P10275, T878A)
Construct: endogenous in cells
Sequence (P10275 whole entry T878A): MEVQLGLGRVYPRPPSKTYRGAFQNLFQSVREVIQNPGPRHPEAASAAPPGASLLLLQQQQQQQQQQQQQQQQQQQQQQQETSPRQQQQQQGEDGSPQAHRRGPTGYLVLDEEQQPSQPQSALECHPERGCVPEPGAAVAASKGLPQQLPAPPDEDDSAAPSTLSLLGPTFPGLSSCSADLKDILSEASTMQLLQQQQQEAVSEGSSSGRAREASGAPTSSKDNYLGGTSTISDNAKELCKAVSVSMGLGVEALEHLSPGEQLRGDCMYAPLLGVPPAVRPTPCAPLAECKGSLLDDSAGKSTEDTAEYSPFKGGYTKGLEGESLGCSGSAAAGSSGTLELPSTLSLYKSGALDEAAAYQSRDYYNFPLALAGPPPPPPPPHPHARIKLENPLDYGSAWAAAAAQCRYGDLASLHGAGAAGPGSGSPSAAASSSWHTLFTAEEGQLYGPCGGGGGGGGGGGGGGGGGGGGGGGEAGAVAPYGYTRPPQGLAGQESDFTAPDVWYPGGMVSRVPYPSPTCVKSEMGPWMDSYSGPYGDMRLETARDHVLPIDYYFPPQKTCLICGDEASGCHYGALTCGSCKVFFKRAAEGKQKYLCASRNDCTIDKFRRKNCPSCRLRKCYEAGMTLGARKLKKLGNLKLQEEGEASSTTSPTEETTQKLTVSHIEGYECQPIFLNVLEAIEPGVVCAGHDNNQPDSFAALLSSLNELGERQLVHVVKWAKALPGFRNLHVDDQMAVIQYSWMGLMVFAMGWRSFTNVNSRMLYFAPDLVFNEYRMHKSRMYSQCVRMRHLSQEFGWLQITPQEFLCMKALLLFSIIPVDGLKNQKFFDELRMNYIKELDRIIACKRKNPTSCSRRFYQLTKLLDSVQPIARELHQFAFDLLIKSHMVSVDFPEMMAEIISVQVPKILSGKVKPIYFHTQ
assay_comment: Androgen-induced PSA-luciferase assay, Luciferase Assay A (LNCaP transiently transfected with PSA (6.1 kb)-luciferase reporter)
condition: LNCaP cells, 1 h pretreatment, R1881 (1 nM) 24 h, read-out: PSA-Luc IC50 Range
Provide the recorded IC50 for the entries that follow.

Field: example entries. Status: answers known.
# test_smiles, test_value
data = [
    ("CS(=O)(=O)Nc1cnc2cc(-c3ccc(Oc4cc(Cl)c(OCCCl)c(C#N)c4)cc3)cnc2n1", "500 to 2000 nM"),
    ("CC(C)(c1ccc(-c2cn([C@H]3C[C@H](NS(C)(=O)=O)C3)nn2)cc1)c1cc(Cl)c(OCCCl)c(C#N)c1", "> 2000 nM"),
    ("CC(C)(c1ccc(OCc2ccnc(NS(C)(=O)=O)n2)cc1)c1cc(Cl)c(OCC2CCC2)c(C#N)c1", "500 to 2000 nM"),
    ("CC(C)(c1ccc(OCc2ccc(F)c(NS(C)(=O)=O)n2)cc1)c1cc(Cl)c(OCCCl)c(C#N)c1", "500 to 2000 nM"),
]

Your task in this section: give IC50 for each listed record.
1. CC(C)(c1ccc(OCc2ccnc(NS(C)(=O)=O)n2)cc1)c1cc(Cl)c(CCN2CC(O)C2)c(C#N)c1
2. CC(C)(c1ccc(OCc2ccnc(NS(=O)(=O)c3cccnc3)n2)cc1)c1cc(Cl)c(OCCCl)c(C#N)c1
3. CS(=O)(=O)Nc1nccc(COc2ccc(C(=O)c3cc(Cl)c(OCCCl)c(C#N)c3)cc2)n1
4. CC(C)(c1ccc(OCc2ccnc(NS(C)(=O)=O)n2)cc1)c1cc(Cl)c(N2CCOC3(CC3)C2)c(C#N)c1
5. CC(C)(c1ccc(OCc2ccnc(NS(=O)(=O)c3cccs3)n2)cc1)c1cc(Cl)c(OCCCl)c(C#N)c1
6. CC(C)(c1ccc(OCc2cccc(NS(C)(=O)=O)c2F)cc1)c1cc(Cl)c(OCCCl)c(C#N)c1

OUT:
["> 2000 nM", "> 2000 nM", "> 2000 nM", "500 to 2000 nM", "500 to 2000 nM", "500 to 2000 nM"]

Your task in this section: give IC50 for each listed record.
1. Cn1ccc(S(=O)(=O)Nc2nccc(COc3ccc(C(C)(C)c4cc(Cl)c(OCCCl)c(C#N)c4)cc3)n2)n1
2. CS(=O)(=O)Nc1nc2ccc(-c3ccc(Oc4cc(Cl)c(OCCCl)c(C#N)c4)cc3)cc2cc1F

OUT:
["500 to 2000 nM", "500 to 2000 nM"]

Your task in this section: give IC50 for each listed record.
1. CC(C)(c1ccc(OCc2ccnc(NS(C)(=O)=O)n2)cc1)c1cc(Cl)c(CN2CC(F)(F)C2)c(Cl)c1
2. CC(C)(c1ccc(CN2CCC(NS(C)(=O)=O)CC2)cc1)c1cc(Cl)c(OCCCl)c(C#N)c1
3. CC(C)(c1ccc(OC2CC3(C2)CN(S(C)(=O)=O)C3)cc1)c1cc(Cl)c(OCCCl)c(C#N)c1
4. CS(=O)(=O)NC1CCN(CCc2ccc(Oc3cc(Cl)c(OCCCl)c(C#N)c3)cc2)CC1
5. CS(=O)(=O)Nc1cnc2cc(-c3ccc(N(CC(F)(F)F)c4cc(Cl)c(OCCCl)c(C#N)c4)cc3)ccc2n1
6. CS(=O)(=O)Nc1nccc(COc2ccc(Cc3cc(Cl)c(OCCCl)c(C#N)c3)cc2)n1
7. CS(=O)(=O)NC1CN(c2ncc(-c3ccc(N(CC(F)(F)F)c4cc(Cl)c(OCCCl)c(C#N)c4)cc3)cn2)C1

OUT:
1. 500 to 2000 nM
2. > 2000 nM
3. 500 to 2000 nM
4. > 2000 nM
5. 500 to 2000 nM
6. > 2000 nM
7. < 500 nM

----------
Provide the recorded half-life at 1 μM for the entries that follow.
assay_comment: Microsomal stability assay, liver microsome half-life (monkey)
Format: in vitro ADME
condition: pH 7.4; monkey liver microsomes 0.5 mg/mL + NADPH, 1 μM compound, 37° C; read-out: Liver microsome + NADPH T½ (min) Monkey

Field: example entries. Status: answers known.
# test_smiles, reported_metric, test_value
records = [
    ("CN(c1ccc(-c2ccc3nc(NS(C)(=O)=O)cnc3c2)cc1)c1cc(Cl)c(OCCCl)c(C#N)c1", "half-life at 1 μM", "> 120 min"),
    ("CC(C)(c1ccc(-c2cnn([C@H]3C[C@H](NS(C)(=O)=O)C3)c2)cc1)c1cc(Cl)c(OCCCl)c(C#N)c1", "half-life at 1 μM", "117 min"),
    ("CC(C)(c1ccc(-c2cnn(CCNS(C)(=O)=O)c2)cc1)c1cc(Cl)c(OCCCl)c(C#N)c1", "half-life at 1 μM", "19 min"),
    ("CS(=O)(=O)Nc1cnc2cc(-c3ccc(Oc4cc(Cl)c(OCCCl)c(C#N)c4)cc3)ccc2n1", "half-life at 1 μM", "> 120 min"),
]

Your task in this section: give half-life at 1 μM for each listed record.
1. CS(=O)(=O)Nc1cnc2cc(-c3ccc(N(CC(F)(F)F)c4cc(Cl)c(OCCCl)c(C#N)c4)cc3)ccc2n1
2. [2H]C([2H])([2H])N(c1ccc(-c2ccc3nc(NS(C)(=O)=O)cnc3c2)cc1)c1cc(Cl)c(OC2CC2)c(C#N)c1
3. CC(C)(c1ccc(-c2cnc(N3CC(NS(C)(=O)=O)C3)nc2)cc1)c1cc(Cl)c(OCCCl)c(C#N)c1

OUT:
1. > 120 min
2. > 120 min
3. 49 min

----------
Provide the recorded pIC50 for the entries that follow.
tested_on: androgen receptor (AR) (Homo sapiens, UniProt P10275, T878A)
Construct: endogenous in cells
assay_comment: Androgen-induced PSA-luciferase assay, Luciferase Assay A (LNCaP transiently transfected with PSA (6.1 kb)-luciferase reporter)
condition: LNCaP cells, 1 h pretreatment, R1881 (1 nM) 24 h, read-out: PSA-Luc IC50 Range
Description: The PSA (6.1 kb)-luciferase reporter contains functional AREs (androgen response elements) to which AR binds in response to androgen to induce luciferase activity. […] After 24 h of incubation with R1881, the cells were harvested, and relative luciferase activities were determined (FIG. 1). […]
pIC50: −log10 of the molar value.

Field: example entries. Status: answers known.
# test_smiles, tested_on, reported_metric, test_value
measured = [
    ("CC1(O)CN(Cc2c(Cl)cc(C(C)(C)c3ccc(OCc4ccnc(NS(C)(=O)=O)n4)cc3)cc2Cl)C1", "androgen receptor (AR) (Homo sapiens, UniProt P10275, T878A)", "pIC50", "< 5.70"),
    ("CC(C)(c1ccc(OCc2cc(C3CCNCC3)nc(NS(C)(=O)=O)n2)cc1)c1cc(Cl)c(OCCCl)c(C#N)c1", "androgen receptor (AR) (Homo sapiens, UniProt P10275, T878A)", "pIC50", "< 5.70"),
]

Your task in this section: give pIC50 for each listed record.
1. CC(C)(c1ccc(-c2cnc(CNS(C)(=O)=O)cn2)cc1)c1cc(Cl)c(OCCCl)c(C#N)c1
2. CS(=O)(=O)NC12CC(n3cc(-c4ccc(Oc5cc(Cl)c(OCCCl)c(C#N)c5)cc4)cn3)(C1)C2

OUT:
["5.70 to 6.30", "5.70 to 6.30"]

Your task in this section: give pIC50 for each listed record.
1. CC(C)(c1ccc(OCc2ccnc(-n3cc(S(N)(=O)=O)cn3)n2)cc1)c1cc(Cl)c(OCCCl)c(C#N)c1
2. CS(=O)(=O)Nc1nccc(COc2ccc(Oc3cc(Cl)c(OCCCl)c(C#N)c3)cc2)n1
3. CC(C)(c1ccc(-c2cnc(N3CC(NS(C)(=O)=O)C3)cn2)cc1)c1cc(Cl)c(OCCCl)c(C#N)c1

OUT:
< 5.70
< 5.70
> 6.30

Your task in this section: give pIC50 for each listed record.
1. CC(C)(c1ccc(CCN2CCC(NS(C)(=O)=O)CC2)cc1)c1cc(Cl)c(OCCCl)c(C#N)c1
2. CS(=O)(=O)Nc1cnc2cc(-c3ccc(Oc4cc(Cl)c(OCC(F)(F)F)c(C#N)c4)cc3)ccc2n1

OUT:
< 5.70
5.70 to 6.30

Your task in this section: give pIC50 for each listed record.
1. CC(C)(c1ccc(OCc2ccnc(NS(C)(=O)=O)n2)cc1)c1cc(Cl)c(OC2CC2)c(C#N)c1
2. CC(C)(c1ccc(O[C@H]2CC[C@H](NS(C)(=O)=O)CC2)cc1)c1cc(Cl)c(OCCCl)c(C#N)c1

OUT:
1: 5.70 to 6.30; 2: < 5.70
